Just for reference, patent US20100003217A1 is where these values come from.

# assay explanation: In vitro intracellular half-life of 2′-C-methyl guanosine-5′-triphosphate (Compound 7) in rat primary hepatocytes
# Assay type: in vitro ADME
# test parameters: primary hepatocytes (cellular extracts); rat hepatocytes, following [^14C]-Compound 1
readout type: half-life at 10 μM (h)
Give the number; h is assumed, so skip it.

Q) Fill in: half-life at 10 μM of C[C@@]1(O)[C@H](O)[C@@H](COP(=O)(O)OP(=O)(O)OP(=O)(O)O)O[C@H]1n1cnc2c(=O)[nH]c(N)nc21 is ___
A) 6.61

* * *

# assay explanation: Cytotoxicity (MTS assay), GS4.1 cells, Example 18
# Type: cell-based, human
# test parameters: human, GS4.1 cells (wild-type); GS4.1 (wild-type), MTS assay, N = 3
readout type: CC50 at 3 days

1. CC(C)(CO)C(=O)SCCOP(=O)(NCc1ccccc1)OC[C@H]1O[C@@H](n2cnc3c(=O)[nH]c(N)nc32)[C@](C)(O)[C@@H]1O (mixture of isomers) = > 100 µM

Now for another entry.
Q) Fill blank: measured CC50 at 3 days of the molecule NC(=O)c1ncn([C@@H]2O[C@H](CO)[C@@H](O)[C@H]2O)n1 [RBV, ribavirin, reference compound] is ____.
A) > 100 µM

* * *

# System: S282T HCV replicon (184R-D2 cells)
# assay explanation: microbe, parasite or virus in culture
# test parameters: Hepatitis C virus
List of pEC50 values.
The meaning of pEC50 here: minus log10 of the concentration in molar units.

1) NC(=O)c1ncn([C@@H]2O[C@H](CO)[C@@H](O)[C@H]2O)n1 [RBV, ribavirin, reference compound] = 4.77

Consider the record given below.
Q) If you can, please state the reported pEC50 value of CC(C)(CO)C(=O)SCCOP(=O)(NCc1ccccc1)OC[C@H]1O[C@@H](n2cnc3c(=O)[nH]c(N)nc32)[C@](C)(O)[C@@H]1O (mixture of isomers) [Compound 1] .
A) 4.41

* * *

# Tested on: monkey primary hepatocytes
# assay explanation: Metabolic disposition of [^14C]-Compound 1 and [^14C]-2′-C-methyl guanosine in monkey primary hepatocytes (incubation medium, cellular extracts, nucleotide levels)
# Format: in vitro ADME, Cynomolgus monkey
# test parameters: monkey hepatocytes Cy230; 10 μM [^14C]-2′-C-methyl guanosine; 8 h
Measured Major metabolites observed in cellular extracts (% of total radioactivity) of individual entries

Below: 2 compounds and their reported Major metabolites observed in cellular extracts (% of total radioactivity).
1) C[C@@]1(O)[C@H](O)[C@@H](COP(=O)(O)OP(=O)(O)O)O[C@H]1n1cnc2c(=O)[nH]c(N)nc21 [Compound 6] = 2.82 % of total radioactivity
2) C[C@@]1(O)[C@H](O)[C@@H](CO)O[C@H]1n1cnc2c(=O)[nH]c(N)nc21 [2′-C-methyl guanosine, 9-(2-C-methyl-β-D-ribofuranosyl)guanine, reference compound] = 77.3 % of total radioactivity

Q) What does the record list as Major metabolites observed in cellular extracts (% of total radioactivity) for C[C@@]1(O)[C@H](O)[C@@H](COP(=O)(O)OP(=O)(O)OP(=O)(O)O)O[C@H]1n1cnc2c(=O)[nH]c(N)nc21 [Compound 7] ?
A) 19.9 % of total radioactivity

* * *

concentration at 24 h listing for selected compounds.
# assay explanation: Metabolite profile in rat liver
# Assay type: in vivo, male Sprague-Dawley rats
# test parameters: male, Sprague-Dawley, rat, liver, po, 100 mg/kg, group 2 (PO dose) pooled liver, 24 h; read-out: liver concentration as μg equivalents/g
Numeric answer only, unit ng/g assumed.

1) C[C@@]1(O)[C@H](O)[C@@H](CO)O[C@H]1n1cnc2c(=O)[nH]c(N)nc21 [2′-C-methyl guanosine, 9-(2-C-methyl-β-D-ribofuranosyl)guanine, reference compound] = 2200

Now look at this one.
Q) Data request, read-out concentration at 24 h, for C[C@@]1(O)[C@H](O)[C@@H](COP(=O)(O)OP(=O)(O)O)O[C@H]1n1cnc2c(=O)[nH]c(N)nc21
A) 1880

* * *

# Test system: rat primary hepatocytes
# assay explanation: Metabolic disposition of [^14C]-Compound 1 and [^14C]-2′-C-methyl guanosine in rat primary hepatocytes (incubation medium, cellular extracts, nucleotide levels)
# Assay type: in vitro ADME, Sprague Dawley rat
# test parameters: rat hepatocytes Rs458; 10 μM [^14C]-2′-C-methyl guanosine; 8 h
The following compounds are listed with their measured Major metabolites observed in cellular extracts (% of total radioactivity) values.

Example entries begin here.
1) C[C@@]1(O)[C@H](O)[C@@H](COP(=O)(O)OP(=O)(O)OP(=O)(O)O)O[C@H]1n1cnc2c(=O)[nH]c(N)nc21 [Compound 7] = 27.0 % of total radioactivity
2) C[C@@]1(O)[C@H](O)[C@@H](CO)O[C@H]1n1cnc2c(=O)[nH]c(N)nc21 [2′-C-methyl guanosine, 9-(2-C-methyl-β-D-ribofuranosyl)guanine, reference compound] = 67.2 % of total radioactivity

Q) Consider the compound shown here: C[C@@]1(O)[C@H](O)[C@@H](COP(=O)(O)OP(=O)(O)O)O[C@H]1n1cnc2c(=O)[nH]c(N)nc21 [Compound 6] What is its recorded Major metabolites observed in cellular extracts (% of total radioactivity)?
A) 5.42 % of total radioactivity

* * *

The following compounds are shown together with reported Major metabolites observed in cellular extracts (% of total radioactivity) values.
# Test system: Huh-7 cells
# assay explanation: Metabolic disposition of [^14C]-Compound 1 and [^14C]-2′-C-methyl guanosine in Huh-7 cells (incubation medium, cellular extracts, nucleotide levels)
# Assay type: in vitro ADME, human
# test parameters: Huh7; 10 μM [^14C]-Compound 1; 24 h; second series

Illustrative cases are given below, each with its answer.
1. C[C@@]1(O)[C@H](O)[C@@H](COP(=O)(O)OP(=O)(O)O)O[C@H]1n1cnc2c(=O)[nH]c(N)nc21 = 7.55 % of total radioactivity
2. C[C@@]1(O)[C@H](O)[C@@H](COP(=O)(O)O)O[C@H]1n1cnc2c(=O)[nH]c(N)nc21 = 4.81 % of total radioactivity
3. C[C@@]1(O)[C@H](O)[C@@H](COP(=O)(O)OP(=O)(O)OP(=O)(O)O)O[C@H]1n1cnc2c(=O)[nH]c(N)nc21 = 71.8 % of total radioactivity

Q) Form field: reported Major metabolites observed in cellular extracts (% of total radioactivity) of CC(C)(CO)C(=O)SCCOP(=O)(NCc1ccccc1)OC[C@H]1O[C@@H](n2cnc3c(=O)[nH]c(N)nc32)[C@](C)(O)[C@@H]1O (mixture of isomers)
A) 10.4 % of total radioactivity

* * *

# assay explanation: Metabolite profile in rat urine
# Format: in vivo, male Sprague-Dawley rats
# test parameters: group 1C (IV dose) pooled urine, 6 h collection
The label depends only on % HPLC (percent of HPLC peak area in the sample extract): Fulfilled if it is at least 1%, Not fulfilled if it is smaller.

// below: answered compounds
1. CC(C)(CO)C(=O)SCCOP(N)(=O)OC[C@H]1O[C@@H](n2cnc3c(=O)[nH]c(N)nc32)[C@](C)(O)[C@@H]1O (single isomer, unassigned; diastereomer 1) [Compd 3 Diastereomer 1] = Not fulfilled
2. C[C@@]1(O)[C@H](O)[C@@H](CO)O[C@H]1n1cnc2c(=O)[nH]c(N)nc21 [2′-C-methyl guanosine, 9-(2-C-methyl-β-D-ribofuranosyl)guanine, reference compound] = Fulfilled
3. C[C@@]1(O)[C@H](O)[C@@H](COP(=O)(O)NCc2ccccc2)O[C@H]1n1cnc2c(=O)[nH]c(N)nc21 [Compound 2] = Fulfilled
4. CC(C)(CO)C(=O)SCCOP(N)(=O)OC[C@H]1O[C@@H](n2cnc3c(=O)[nH]c(N)nc32)[C@](C)(O)[C@@H]1O (single isomer, unassigned; diastereomer 2) [Compd 3 Diastereomer 2] = Fulfilled

Here's the next entry for you.
Q) Exam item: decide whether the reported % HPLC (percent of HPLC peak area in the sample extract) for CC(C)(CO)C(=O)SCCOP(=O)(NCc1ccccc1)OC[C@H]1O[C@@H](n2cnc3c(=O)[nH]c(N)nc32)[C@](C)(O)[C@@H]1O (mixture of isomers) [Compound 1] is at least 1%.
A) Fulfilled

* * *

# Test system: human primary hepatocytes
# assay explanation: Metabolic disposition of [^14C]-Compound 1 and [^14C]-2′-C-methyl guanosine in human primary hepatocytes (incubation medium, cellular extracts, nucleotide levels)
# Format: in vitro ADME
# test parameters: human hepatocytes Hu775; 1 μM [^14C]-2′-C-methyl guanosine; 24 h
Major metabolites observed in cellular extracts (% of total radioactivity) reference

Q) Look up Major metabolites observed in cellular extracts (% of total radioactivity) for this compound: C[C@@]1(O)[C@H](O)[C@@H](COP(=O)(O)OP(=O)(O)OP(=O)(O)O)O[C@H]1n1cnc2c(=O)[nH]c(N)nc21
A) 46.3 % of total radioactivity

Q) Would you kindly share the measured Major metabolites observed in cellular extracts (% of total radioactivity) for C[C@@]1(O)[C@H](O)[C@@H](COP(=O)(O)OP(=O)(O)O)O[C@H]1n1cnc2c(=O)[nH]c(N)nc21 ?
A) 9.04 % of total radioactivity

Q) For C[C@@]1(O)[C@H](O)[C@@H](CO)O[C@H]1n1cnc2c(=O)[nH]c(N)nc21 [2′-C-methyl guanosine, 9-(2-C-methyl-β-D-ribofuranosyl)guanine, reference compound] , what is its reported Major metabolites observed in cellular extracts (% of total radioactivity)?
A) 41.3 % of total radioactivity

Q) What value of Major metabolites observed in cellular extracts (% of total radioactivity) has been reported for the following compound? C[C@@]1(O)[C@H](O)[C@@H](COP(=O)(O)O)O[C@H]1n1cnc2c(=O)[nH]c(N)nc21
A) 3.39 % of total radioactivity
